# assayed_system: T1, TNFR1 (Homo sapiens, UniProt P19438)
# T1 chain: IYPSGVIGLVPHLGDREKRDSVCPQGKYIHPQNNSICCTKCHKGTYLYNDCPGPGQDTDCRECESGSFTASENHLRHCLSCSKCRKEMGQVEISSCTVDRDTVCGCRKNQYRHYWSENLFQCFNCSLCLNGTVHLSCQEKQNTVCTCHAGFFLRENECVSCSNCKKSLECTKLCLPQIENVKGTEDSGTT
# experiment_notes: yeast display SC50
metric: apparent Kd (screen) (nM)

E4Y (designed binder) SMEYEVEKAAKEYEKKKKEAIEKHLEKLKAKDKEAAERFLKELEEAAKEYAKDEAKTMSEEEAKRRAKKYKEKVLLSELSEEEQKEIKEAEEKLVRTILKYVEEAAK | 1.16
E72C (designed binder) SMEEEVEKAAKEYEKKKKEAIEKHLEKLKAKDKEAAERFLKELEEAAKEYAKDEAKTMSEEEAKRRAKKYKCKVLLSELSEEEQKEIKEAEEKLVRTILKYVEEAAK | 1.05
E12S (designed binder) SMEEEVEKAAKSYEKKKKEAIEKHLEKLKAKDKEAAERFLKELEEAAKEYAKDEAKTMSEEEAKRRAKKYKEKVLLSELSEEEQKEIKEAEEKLVRTILKYVEEAAK | 0.446
M2I (designed binder) SIEEEVEKAAKEYEKKKKEAIEKHLEKLKAKDKEAAERFLKELEEAAKEYAKDEAKTMSEEEAKRRAKKYKEKVLLSELSEEEQKEIKEAEEKLVRTILKYVEEAAK | 1.27

[A] E60S (designed binder) SMEEEVEKAAKEYEKKKKEAIEKHLEKLKAKDKEAAERFLKELEEAAKEYAKDEAKTMSSEEAKRRAKKYKEKVLLSELSEEEQKEIKEAEEKLVRTILKYVEEAAK
[B] A55H (designed binder) SMEEEVEKAAKEYEKKKKEAIEKHLEKLKAKDKEAAERFLKELEEAAKEYAKDEHKTMSEEEAKRRAKKYKEKVLLSELSEEEQKEIKEAEEKLVRTILKYVEEAAK
[C] Y70Q (designed binder) SMEEEVEKAAKEYEKKKKEAIEKHLEKLKAKDKEAAERFLKELEEAAKEYAKDEAKTMSEEEAKRRAKKQKEKVLLSELSEEEQKEIKEAEEKLVRTILKYVEEAAK
[D] E89K (designed binder) SMEEEVEKAAKEYEKKKKEAIEKHLEKLKAKDKEAAERFLKELEEAAKEYAKDEAKTMSEEEAKRRAKKYKEKVLLSELSEEEQKEIKKAEEKLVRTILKYVEEAAK
Order field: apparent Kd (screen) | Direction: descending (largest first) // respond by listing labels in the order requested
B, C, D, A
